target: T1, Active MMP-9 enzyme (UniProt P14780 107-707, limits assumed); experiment: enzyme inhibition of MMP-9 (fluorescent substrate cleavage, inhibitory constants derived from the curves)
T1 construct: Bought as 'Active MMP-9 enzyme' from Calbiochem
T1 sequence (P14780 107-707 limits assumed): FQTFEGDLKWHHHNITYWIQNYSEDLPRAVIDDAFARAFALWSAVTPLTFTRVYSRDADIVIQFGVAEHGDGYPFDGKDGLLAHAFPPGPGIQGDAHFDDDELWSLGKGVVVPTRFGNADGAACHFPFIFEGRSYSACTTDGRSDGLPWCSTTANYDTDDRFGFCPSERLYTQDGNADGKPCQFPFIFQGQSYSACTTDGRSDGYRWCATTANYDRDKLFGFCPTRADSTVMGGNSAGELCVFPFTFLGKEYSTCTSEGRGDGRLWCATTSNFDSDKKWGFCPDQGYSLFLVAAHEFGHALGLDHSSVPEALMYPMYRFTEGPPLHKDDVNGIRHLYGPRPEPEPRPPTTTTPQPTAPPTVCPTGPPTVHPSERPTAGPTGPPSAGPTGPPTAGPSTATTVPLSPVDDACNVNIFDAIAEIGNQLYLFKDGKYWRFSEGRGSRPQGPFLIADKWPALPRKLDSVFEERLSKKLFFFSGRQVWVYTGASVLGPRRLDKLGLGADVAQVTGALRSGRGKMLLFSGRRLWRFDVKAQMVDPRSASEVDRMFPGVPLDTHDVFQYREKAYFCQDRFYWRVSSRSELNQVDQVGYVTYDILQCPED
Where no end group is shown, it is not given here. PSDE = pyridine disulfide ethylenediaminetetraacetic acid
Property: pKi
By convention, pKi is the negative base-10 log of a molar concentration.

Given the binder C(PSDE)SAVPVH (Synthetic TIMP-derived peptide covalently coupled to a small-molecule zinc chelator (PSDE); also called ChepPep-1; zinc chelating peptide) [ChePep-1 (PSDE coupled with the peptide having SEQ ID No. 4)] , what is its reported pKi?
4.01
